Test system: ACVR1;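 further: KINOMEscan kinase panel screen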
Condition description: concentration: 1 μM, replicates: in singlicate; n = 1
Measured %Inh values are reported for all entries that follow.
Reported endpoint: %Inh (%)

# Mol, Target or test system, Reported endpoint, Val
data = [
    ("CCn1cnc2c(NCc3ccccc3)ncnc21", "ACVR1", "%Inh", 0),
    ("c1ccc(Oc2ccc(Nc3ccnc4cc(-c5ccc(CN6CCCCC6)o5)ccc34)cc2)nc1", "ACVR1", "%Inh", 0),
    ("Cc1ccccc1CC(=O)N1CCc2cc(-c3cn(C)c4ncnc(N)c34)ccc21", "ACVR1", "%Inh", 0),
    ("O=C(O)C(F)(F)F.O=c1[nH]ccc2nc(N[C@@H]3CCNC3)nc(Nc3ccc4c(c3)S(=O)(=O)CC4)c12", "ACVR1", "%Inh", 15),
    ("CC(C)(C)c1ccc(C(=O)Nc2cn3cc(-n4ccnc4)ccc3n2)cc1", "ACVR1", "%Inh", 0),
    ("CCNC(=O)/C=C/c1n[nH]c2cc(Sc3ccccc3C(=O)NC)ccc12", "ACVR1", "%Inh", 12),
    ("Nc1ncc(-c2cn[nH]c2)c2scc(-c3ccc4c(c3)CCN4C(=O)Cc3ccccc3)c12", "ACVR1", "%Inh", 0),
    ("COC(=O)Nc1nc2ccc(Oc3ccc(NC(=O)Nc4cc(C(F)(F)F)ccc4F)cc3)cc2[nH]1.Cl", "ACVR1", "%Inh", 0),
]
